Target: human NLRP3 (Homo sapiens (Human))
Sequence (Q96P20 whole entry): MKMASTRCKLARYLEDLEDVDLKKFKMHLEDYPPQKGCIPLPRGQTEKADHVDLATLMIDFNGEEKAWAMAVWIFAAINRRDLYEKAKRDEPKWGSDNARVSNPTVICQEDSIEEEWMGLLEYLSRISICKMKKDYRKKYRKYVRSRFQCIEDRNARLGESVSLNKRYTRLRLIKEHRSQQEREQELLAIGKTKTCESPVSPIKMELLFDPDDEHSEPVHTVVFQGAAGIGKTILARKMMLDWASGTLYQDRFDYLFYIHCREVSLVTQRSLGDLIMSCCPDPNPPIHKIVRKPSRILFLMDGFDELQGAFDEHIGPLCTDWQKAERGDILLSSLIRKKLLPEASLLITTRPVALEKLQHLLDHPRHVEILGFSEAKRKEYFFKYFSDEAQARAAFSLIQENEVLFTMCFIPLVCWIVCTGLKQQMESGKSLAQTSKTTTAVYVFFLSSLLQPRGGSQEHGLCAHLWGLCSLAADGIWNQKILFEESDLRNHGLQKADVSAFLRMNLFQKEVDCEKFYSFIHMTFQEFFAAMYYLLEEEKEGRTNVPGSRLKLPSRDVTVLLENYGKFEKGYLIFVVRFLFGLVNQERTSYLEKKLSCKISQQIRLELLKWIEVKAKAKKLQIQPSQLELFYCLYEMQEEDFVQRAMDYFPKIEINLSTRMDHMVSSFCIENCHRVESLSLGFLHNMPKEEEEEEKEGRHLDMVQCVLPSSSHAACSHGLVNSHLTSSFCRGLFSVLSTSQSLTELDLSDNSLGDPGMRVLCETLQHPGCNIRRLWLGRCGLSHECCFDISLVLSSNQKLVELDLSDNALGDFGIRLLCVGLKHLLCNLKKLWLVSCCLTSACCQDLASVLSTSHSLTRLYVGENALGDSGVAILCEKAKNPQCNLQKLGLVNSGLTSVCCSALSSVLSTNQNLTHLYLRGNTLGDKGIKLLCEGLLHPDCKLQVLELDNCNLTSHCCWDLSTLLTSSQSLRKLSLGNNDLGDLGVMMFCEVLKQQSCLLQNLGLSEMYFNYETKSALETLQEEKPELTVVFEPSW
Experiment: Scintillation Proximity (SPA) NLRP3 Assay: displacement of 3H-MCC950
Type: binding
Conditions: displacement of 3H-MCC950; read-out: SPA IC50
Listed next: entries and their corresponding IC50.

| compound | IC50 |
| --- | --- |
| C[C@H]1C[C@H](NC(=O)C2(c3ccc(C(F)(F)F)cc3F)CC2)[C@@H]2CC[C@H]1N2c1nnn[nH]1 [84D*] | > 100 µM |

Fill in: IC50 of C[C@H]1C[C@@H](NC(=O)C2(c3ccc(OC(F)F)cc3)CC2)[C@@H]2CC[C@H]1N2c1nnn[nH]1 (single isomer, unassigned) [35C*] is ___
> 100 µM

Same read-out for Cc1cc(C2(C(=O)N[C@@H]3C[C@H](C)CCN(c4nnn[nH]4)C3)CC2)ccc1C(F)(F)F (single isomer, unassigned) ?
1 to 10 µM

And then C[C@@H]1CCN(c2nnn[nH]2)C[C@H](NC(=O)C2(c3ccc(C(F)(F)F)cc3F)CC2)C1 (single isomer, unassigned) [68A*] , what is it?
< 1 µM

Subsequent entry: C[C@@H]1CCN(c2nnn[nH]2)C[C@@H](NC(=O)C2(c3ccc(OC(F)(F)F)cc3O)CC2)C1 (single isomer, unassigned) [62B*]
< 1 µM

What would you report for C[C@@H]1C[C@H]2CC[C@@H]([C@H](NC(=O)C3(c4ccc(C(F)(F)F)cc4)CC3)C1)N2c1nnn[nH]1 [104C*] ?
< 1 µM

Follow-up item: C[C@H]1CCN(c2nnn[nH]2)C[C@@H](NC(=O)C2(c3ccc(Br)cc3)CC2)C1 (single isomer, unassigned) [59D*]
1 to 10 µM

Input C[C@@H]1C[C@@H](NC(=O)C2(c3ccc(OC(F)F)cc3)CC2)[C@@H]2CC[C@H]1N2c1nnn[nH]1 (single isomer, unassigned) [35G*]
> 100 µM

Do the same for Cc1ccc(C2(C(=O)N[C@@H]3C[C@@H](C)[C@@H]4CC[C@H]3N4c3nnn[nH]3)CC2)cc1 [87A*] please
< 1 µM

Same thing, different compound: C[C@H]1CCN(c2nnn[nH]2)C[C@@H](NC(=O)C2(c3ccc(Cl)c(F)c3F)CC2)C1 (single isomer, unassigned)
1 to 10 µM
